Tested on: T1, CPS-6 H148A (Caenorhabditis elegans, UniProt Q95NM6 63-305, H148A)
T1 sequence: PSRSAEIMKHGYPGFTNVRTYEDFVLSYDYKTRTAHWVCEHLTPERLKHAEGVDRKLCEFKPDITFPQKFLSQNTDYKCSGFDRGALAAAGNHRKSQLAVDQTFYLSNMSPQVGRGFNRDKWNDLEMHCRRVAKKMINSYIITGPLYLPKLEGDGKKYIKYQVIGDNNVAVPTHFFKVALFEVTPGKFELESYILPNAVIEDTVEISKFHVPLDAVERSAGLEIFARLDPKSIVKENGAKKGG
Assay comment: filter binding
Readout label: Kd
The reply must contain the numeric value and, after it, the unit.

So what does the record say about Kd for ACGCTGCCGAATTCTGGCGTTAGGAGATACCGATAAGCTTCGGCTTAA (ssDNA) [48-nt ssDNA] ?
159 nM
